Experiment: Thermal denaturation followed by CD spectroscopy
Assay type: physicochemical
Details: apoprotein 0.2 mg/mL, 10 mM potassium phosphate pH 7.8, 50 mM (NH4)2SO4
measurement_type: Tm (°C)
Output spec: scalar in °C, unitless text.

Reference set, count: 2
molecule	Tm (°C)
Y143F ALKBH3: ALKBH3 mutant, Tyr143 replaced with Phe (protein, UniProt Q96Q83 1-286, looked up, variant Y143F) Alpha-ketoglutarate-dependent …: MEEKRRRARVQGAWAAPVKSQAIAQPATTAKSHLHQKPGQTWKNKEHHLSDREFVFKEPQQVVRRAPEPRVIDREGVYEISLSPTGVSRVCLYPGFVDVKEADWILEQLCQDVPWKQRTGIREDITYQQPRLTAWYGELPYTFSRITMEPNPHWHPVLRTLKNRIEENTGHTFNSLLCNLYRNEKDSVDWHSDDEPSLGRCPIIASLSFGATRTFEMRKKPPPEENGDYTYVERVKIPLDHGTLLIMEGATQADWQHRVPKEYHSREPRVNLTFRTVYPDPRGAPW	43.5
Y143A ALKBH3: ALKBH3 mutant, Tyr143 replaced with Ala (protein, UniProt Q96Q83 1-286, looked up, variant Y143A) Alpha-ketoglutarate-dependent …: MEEKRRRARVQGAWAAPVKSQAIAQPATTAKSHLHQKPGQTWKNKEHHLSDREFVFKEPQQVVRRAPEPRVIDREGVYEISLSPTGVSRVCLYPGFVDVKEADWILEQLCQDVPWKQRTGIREDITYQQPRLTAWYGELPYTASRITMEPNPHWHPVLRTLKNRIEENTGHTFNSLLCNLYRNEKDSVDWHSDDEPSLGRCPIIASLSFGATRTFEMRKKPPPEENGDYTYVERVKIPLDHGTLLIMEGATQADWQHRVPKEYHSREPRVNLTFRTVYPDPRGAPW	44.2

Exercise: Consider the molecule shown here: L177A ALKBH3: ALKBH3 mutant, Leu177 replaced with Ala (protein, UniProt Q96Q83 1-286, looked up, variant L177A) Alpha-ketoglutarate-dependent …: MEEKRRRARVQGAWAAPVKSQAIAQPATTAKSHLHQKPGQTWKNKEHHLSDREFVFKEPQQVVRRAPEPRVIDREGVYEISLSPTGVSRVCLYPGFVDVKEADWILEQLCQDVPWKQRTGIREDITYQQPRLTAWYGELPYTYSRITMEPNPHWHPVLRTLKNRIEENTGHTFNSLACNLYRNEKDSVDWHSDDEPSLGRCPIIASLSFGATRTFEMRKKPPPEENGDYTYVERVKIPLDHGTLLIMEGATQADWQHRVPKEYHSREPRVNLTFRTVYPDPRGAPW What is its recorded Tm?
Solution: 44.5

Reference for the values: paper PMC10816986
